System: HOP-62 NSCLC
measurement_description: NCI tumour cell line growth inhibition, 48 h
quantity_kind: TGI (µM)

molecule	tested_system	quantity_kind	lt_gt_eq	numeric_value
Cc1ncc([N+](=O)[O-])n1CCNC(=O)Cn1ccnc1[N+](=O)[O-]	HOP-62 NSCLC	TGI	>	100
[O-]/[N+](=N/c1ncc(-c2ccccc2)cn1)c1ncc(-c2ccccc2)cn1	HOP-62 NSCLC	TGI	>	100
Cn1c(-c2cccs2)cc(-c2ccsc2)c1-c1cccs1	HOP-62 NSCLC	TGI	>	100
CC(=O)C(N=NC1CCC(S(=O)(=O)NB2N=CS2)CC1)C(=O)Nc1ccccc1C (stereo not drawn)	HOP-62 NSCLC	TGI	=	34.7
O=C(Nc1nc(-c2ccccc2)cs1)c1cc(O)c(O)c(O)c1	HOP-62 NSCLC	TGI	=	30.6
CN(C)c1cccc(/C=C(\C#N)c2ccccc2)c1	HOP-62 NSCLC	TGI	=	8.65
C=C1[C@@H](O)C[C@H]2C(C)(C)C[C@H](Cl)C[C@]2(C)[C@H]1C[C@H](O)[C@H]1CC(=O)NC1=O	HOP-62 NSCLC	TGI	=	0.0961
CC(=O)OC1CC2(O)C(CCC3(C)C(c4ccc(=O)oc4)CCC32O)C2(C)CCC(OC3OC(CO)C(O)C(O)C3O)C=C12 (stereo not drawn)	HOP-62 NSCLC	TGI	=	0.144
O=C1Nc2ccc(CN3CCOC3=O)cc2/C1=C/c1cc(CN2CCOCC2)c[nH]1	HOP-62 NSCLC	TGI	>	100
O=C(O)c1cc2cc(O)ccc2[nH]1	HOP-62 NSCLC	TGI	>	100
N#CSCC1CC(O)(c2ccccc2)CC(c2ccc(Cl)cc2)O1 (stereo not drawn)	HOP-62 NSCLC	TGI	=	14.9
O=S1(=O)c2ccccc2-c2nccc3ccnc1c23	HOP-62 NSCLC	TGI	>	100
COC(=O)[C@@H]1[C@H](O)[C@H](C)[C@H](O)[C@H](C)/C=C\C=C(C)C(=O)Nc2c(C)c(OC(C)=O)c3c(c2O)C(=O)C(C)=C2OCOC(=C23)C(C)=C[C@@](C)(O)[C@H](O)[C@@H](C)[C@H]1OC(C)=O	HOP-62 NSCLC	TGI	>	100
